Data credit: the DeepSol protein solubility set

MEASUREMENT_NOTES: soluble on expression in E. coli; label from the status in PepcDB or PDB records
PROPERTY_NAME: soluble on expression in E. coli

1) MRRNIRVTLGAATIVAALGLSGCSHPEFKRSSPPAPSLPPVTSSPLEAAPITPLPAPEALIDVLSRLADPAVPGTNKVQLIEGATPENAAALDRFTTALRDGSYLPMTFAANDIAWSDNKPSDVMATVVVTTAHPDNREFTFPMEFVSFKGGWQLSRQTAEMLLAMGNSPDSTPSATSPAPAPSPTPPG ... soluble
2) MGHHHHHHHHHSSGHIDDDDKHMLEASAKATMGQGEQDHFVLKSGHAMPAVGLGTWRAGSDTAHSVRTAITEAGYRHVDTAAEYGVEKEVGKGLKAAMEAGIDRKDLFVTSKIWCTNLAPERVRPALENTLKDLQLDYIDLYHIHWPFRLKDGAHMPPEAGEVLEFDMEGVWKEMENLVKDGLVKDIGVCNYTVTKLNRLLRSAKIPPAVCQMEMHPGWKNDKIFEACKKHGIHITAYSPLGSSEKNLAHDPVVEKVANKLNKTPGQVLIKWALQRGTSVIPKSSKDERIKENIQVFGWEIPEEDFKVLCSIKDEKRVLTGEELFVNKTHGPYRSARDVWDHEN ... soluble

====

MEASUREMENT_NOTES: soluble on expression in E. coli; label from the status in PepcDB or PDB records
PROPERTY_NAME: soluble on expression in E. coli

1) EVKLQESGGDLVQPGGSLKLSCAASGFTFSSYTMSWVRQTPEKRLEWVASINNGGGRTYYPDTVKGRFTISRDNAKNTLYLQMSSLKSEDTAMYYCVRHEYYYAMDYWGQGTTVTVSSAWRHPQFGG ... soluble
2) MGSDKIHHHHHHMPHPYHERLNFKTELPLRVISHGTVGPKMVLPHWHRAVELAYAYRGQPGTAHIGRSTYHMLADHLYVINSEVVHSYETFLDEDNQIVTLLLPASWLRNAVADEQLPIWGPLDLDLQSAVYQPLAKAVQTLVAGVITPSSARSAYLTSLGAEYQLVGQLLKHLTVNGQVTSDQLPLPAPLRQAVTELQENYAQPVSIANLAEQLNYSSVYFSRYFKDYMGISPKAYLGQIRLERATSLLMTSQDSIQNIALKTGFSTEKNFFVTFKQYYQMTPRTYRQRYSAQQSWS ... not soluble
3) MISIVIPLYNQVAYTQLCVQSLRRAGLNGVDVLLIDNGSTDGTAEYLKSCSDLRVIRNRENLGCAGAWNQGVRETTSEWVMILNNDVVVSPGWLDGLLEAAGKEGLDVVSPAIREGEYNYDIEGYSQEFVGRMGDVVRRGVADGICFMVRRRVFEVVGLFDENFRIGQFEDADFFRRARNAGFRLGTTGRSFIHHFGSVTQDAIRKNRPERPYVAENRAYFREKWQLTRGRRLIERWRRKLREFAWQKCERMFHGHTLKEKWLGGRLRYYLEHHHHHH ... not soluble
4) MTTATSERQKTLLFKAAERQWKEEFAGKETDIRKVDCNIYKGILYQLEIRQVFLDTSLSLKKLSALLETNQTYLSNVVNKYFGCNLKELVNTYRVEYAKELLCSRRCALTELPCSCGFASKSAFYSAFSRIVGVSPLSYQTQERRLEHHHHHH ... soluble

====

MEASUREMENT_NOTES: soluble on expression in E. coli; label from the status in PepcDB or PDB records
PROPERTY_NAME: soluble on expression in E. coli

1. VIRIGTRGSLLATTQAATVRDALIAGGHSAELVTISTEGDRSMAPIASLGVGVFTTALREAMEAGLVDAAVHSYKDLPTAADPRFTVAAIPPRNDPRDAVVARDGLTLGELPVGSLVGTSSPRRAAQLRALGLGLEIRPLRGNLDTRLNKVSSGDLDAIVVARAGLARLGRLDDVTETLEPVQMLPAPAQGALAVECRAGDSRLVAVLAELDDADTRAAVTAERALLADLEAGCSAPVGAIAEVVESIDEDGRVFEELSLRGCVAALDGSDVIRASGIGSCGRARELGLSVAAELFELGARELMWGVRH ... not soluble
2. MEKIAILVDVQNVYYTCREQYGRHFDYNQFWSQVTQNRTVVKANAYAIASKDPQQRQFHHILRGIGFEVMLKPFIQRSDGSAKGDWDVGIALDGYELAQEVDTVVLVSGDGDFEPLVTRIAQRFQVKVEVYGVPKLTAQHLIDVASQFHPIEHRLLL ... not soluble

====

MEASUREMENT_NOTES: soluble on expression in E. coli; label from the status in PepcDB or PDB records
PROPERTY_NAME: soluble on expression in E. coli

1) MSLNIHPMWNTYPTLSKELTTTLRLMEQAVQIDNQEIQAAVHDMIHSGGKLLRPAYQLLFSYFGEQRDPKKATALAASIELLHTATLVHDDIVDEADTRRGLPTLRSRFGNSTAVYTGDYLFVCCFKLLSDYSSSLKSIQLNSRSMEKVLTGELGQMDNRYNFEVTIDQYLKNISGKTAELFALSCFVGAYESGTSQRFAKRCGEIGENIGLAFQIIDDILDYTQTADAIGKPVLEDVRQGVYSLPLIYALEANREVLLPLLMKKEALTDEETQEIYRLVHELGGVEKAQELATHYTEKALKEISKLPETKAQAKEQLYEITQTILTREGHHHHHH ... soluble
2) MSLSIKLIAVDIDGTLVNSQKEITPEVFSAIQDAKEAGVKVVIATGRPIAGVAKLLDDLQLRDQGDYVVTFNGALVQETATGHEIISESLTYEDYLDMEFLSRKLGVHMHAITKDGIYTANRNIGKYTVHESTLVSMPIFYRTPEEMAGKEIVKCMFIDEPEILDAAIEKIPAEFYERYSINKSAPFYLELLTKNVDKGSAITHLAEKLGLTKDETMAIGDEENDRAMLEVVGNPVVMENGNPEIKKIAKYITKTNDESGVAHAIRTWVLEGHHHHHH ... soluble
3) GPGSMDIDSPYKILGIPQSASVADIRAAFRRLALTTHPDKQGSNTSGGEAQMMLYSSHPFYVIKEASDILLDPVRRAEYDEGQQRMYARSIGVVSDVHDISDFRLVEERKALCSEDRVCGDVTIQVYEMECRCGGAFEIFLVKGEEGNMDKLCGCDSCSLIVSVRRQTQQ ... soluble

====

MEASUREMENT_NOTES: soluble on expression in E. coli; label from the status in PepcDB or PDB records
PROPERTY_NAME: soluble on expression in E. coli

1. MHCSLYTRFNVENAGGDFSVGGARVCFRIPENPCSPRPAVAGRANPLPPVADFGMKEVRTKKKKHMTNDVNGMKKKCGRPALGRTRKLTRGVTVKFSPVSYEALRFRAGKSGRSLAVYIREAALAATVTARHTPEENALLRSLAGMANNLNQLTKLSHQTGFYRTRLLIEGLLGKLKRIMDDYRPKGG ... not soluble
2. MVCGKKRVGEELRCKSCGSPFEIRTGFHYRENIEDNFPYIKNMISLGESETPIFHGDDFDLKLDYMLPTFSYKDRGSRILISHIADIRDSYGITRISEDSSGNAGASIAAYGSAAGLAVDIYVPETVAGRKFSQIQAYGANVIKVKGSREDVQSAAERSESFYASHVLRPEFRDGIRTLAYEIYRQYDRMPRNIYIPVSAGTLLLGLYSGLRHLMESGEIAEMPAIVAVQTEAVSPLCAKINGLNYDPDNKLSSIADALVSRKPVLLQKMYQVISEYGRCMTVSDDEIIEARNRLAKKGFLVEYSSATVYAAFRKKPQENSLLVLTGSGLKNDS ... not soluble

====

MEASUREMENT_NOTES: soluble on expression in E. coli; label from the status in PepcDB or PDB records
PROPERTY_NAME: soluble on expression in E. coli

1. MSLGKDIKVGYNWELSGNVSSYGNSMKNGADLAVKEINAAGGVGGKKLKVLSQDNKSENAEAATVATNLVTKGANVIIGPATSGAAASSTPKVNAAAVPMIAPAATQDNLVYGSDGKTLNQYFFRATFVDNYQGKLLSQYATDNLKAKKVVLFYDNSSDYSKGVAKSFKESYSGKIVDSMTFSAGDTDFQASLTKLKGKEYDAIVMPGYYTETGLIVKQARDLGISKPVLGPDGFDSPKFVQSATPVGASNVYYLTGFTTQGSTKAKAFHDHYVKAYGEEPSMFSALSYDAVYMAAKSAKGAKTSIDIKKALAKLKDFKGVTGKMSIDKNHNVVKSAYVVKLEDGKTSSVNIISAKEGHHHHHH ... soluble
2. MSLANKPLAKALETISGIPITPFRKSDGSIDWHHYKETVDRIVDNGIDVIVPCGNTSEFYALSLEEAKEEVRRTVEYVHGRALVVAGIGYATSTAIELGNAAKAAGADAVMIHMPIHPYVTAGGVYAYFRDIIEALDFPSLVYFKDPEISDRVLVDLAPLQNLVGVKYAINDLPRFAKVVRSIPEEHQIAWICGTAEKWAPFFWHAGAKGFTSGLVNLLPQKAVEMLEALRNNDNDAVWRIWEDIVPFEDLRGKYNQGNNVVVIKEAMEMLRQNAGVTRAPVNELSNEDKQLVTELLSSWKLLQPTKGEGHHHHHH ... soluble
3. MENQPKLNSSKEVIAFLAERFPQCFSAEGEARPLKIGIFQDLVERVGGEMNLSKTQLRAALRLYTSSWRYLYGVKAGAIRVDLDGNPCGELEEQHIAHARQQLEEAKARVQAQRAAQQAKKREAAAAAGQQDEGVRRERKPRPQQPRRKEGAEQRKPRPVAAKAPREERLTPVSDVSVLTVGQALKVKAGNNAMDATVLEITKDGVRVQLTSGMSMIVRAEHLVF ... not soluble
4. MSLEASLVKLSEQELTSLNYAFQQMRKPLQTINYDYAVWDRTYSYMKSNSASAKRYYEKHEYPDDTFKSLKVDGVFIFNRTNQPVFSKGFNHRNDIPLVFELTDFKQHPQNIALSPQTKQAHPPASKPLDSPDDVPSTHGVIATRYGPAIYSSTSILKSDRSGSQLGYLVFIRLIDEWFIAELSQYTAAGVEIAMADAADAQLARLGANTKLNKVTATSERLITNVDGKPLLKLVLYHTNEGHHHHHH ... not soluble
5. MKIAALYDIHGNYPALKEVLKQVKKLSPDLVVLGGDLIAGPMPLETLSLLKHVSTTFKTVGIMGNNDQDIVDIYAKKRVGLSRKATEQLTWIANQLSYKQVSFLRNLLPSISIGNYFFCHAVKNDNTTVFSPQQNKAYIETLFKGVQESYIICGHTHIQFELSLPNKKIINAGSIGMPFSNQFGAQWLWLDDNRIEYKRTIFNQQAAIQLISQTEYPFKNEFIANNLRSTISLSQGYSILNTLIRAQNAQHDLSLEHHHHHH ... soluble
